CCRF-CEM phagocytosis EC50 overview
# experimental-target: human CD47 on cells (SHP-77 tumor cells, human red blood cells, CCRF-CEM cells, human CD47 CHO-K1 stable cell … (human, UniProt Q08722 19-323))
# protocol-description: cell-based or functional assay
Write it as a number; the unit nM goes unstated.

Which CCRF-CEM phagocytosis EC50 value is on record for 108VH5.M27 / 108VL1.M5 (antibody, human IgG4 S228P, kappa, V domains shown, Full-length IgG4 (S228P), kappa; also called VH5.M27 VL1.M5) VH: EVQLVQSGAEVKKPGASVKVSCKASGYTFTHHWMHWVRQAPGQGLEWMGMIDASDYETRYAQKFQGRVTMTRDTSTSTVYMELSSLRSEDTAVYYCARLGRYYFDYWGQGTLVTVSS VL: EIVLTQSPATLSLSPGERATLSCRASQSVSSYLAWYQQKPGQAPRLLIYGASNRATGIPARFSGSGSGTDFTLTISSLEPEDFAVYYCGESYGHLYTFGGGTKVEIKR ?
0.28

Request the reported CCRF-CEM phagocytosis EC50 associated with 108VH5.M22 / 108VL1.M5 (antibody, human IgG4 S228P, kappa, V domains shown, Full-length IgG4 (S228P), kappa; also called VH5.M22 VL1.M5) VH: EVQLVQSGAEVKKPGASVKVSCKASGYTFTHHWMHWVRQAPGQGLEWMGMIDASDIETRYAQKFQGRVTMTRDTSTSTVYMELSSLRSEDTAVYYCARLGRYYFDYWGQGTLVTVSS VL: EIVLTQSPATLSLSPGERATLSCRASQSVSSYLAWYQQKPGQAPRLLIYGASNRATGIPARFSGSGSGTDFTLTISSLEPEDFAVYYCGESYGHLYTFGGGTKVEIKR
0.37

Fill blank: measured CCRF-CEM phagocytosis EC50 of the binder 108VH10.Mp / 108VL10.Me (antibody, V domains shown, 4D5-framework series; constant regions not restated for this series; also called VH10.Mp VL10.Me) VH: EVQLVESGGGLVQPGGSLRLSCAASGFTFSHHWIHWVRQAPGKGLEWVAMIDASDSETRLVDSFKGRFTISADTSKNTAYLQMNSLRAEDTAVYYCSRLGRYYFDYWGQGTLVTVSS VL: DIQMTQSPSSLSASVGDRVTITCRASQSISSYLNWYQQKPGKAPKLLIYGASSRYSGVPSRFSGSRSGTDFTLTISSLQPEDFATYYCGESYGHLYTFGQGTKVEIK is ____.
1.2
